B1: HDV Ribozyme (parent)
chain: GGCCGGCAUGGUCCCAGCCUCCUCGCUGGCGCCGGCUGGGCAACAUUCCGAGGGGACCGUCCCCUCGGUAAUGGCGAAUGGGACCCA

Variants of: B1
assay_name: self-cleavage, relative activity (ratio to wild type); higher = more cleavage; co-transcriptional
Everything with self-cleavage lower than 0.1 is class 0; everything else, including exactly 0.1, is class 1.

variant_name="C33U G81A" group="class 1"

Here is another variant to look at.
Asked: Does self-cleavage meet or surpass 0.1 for C21G U72G ?
Given back: class 0
